# Tested on: HCT-116
# Protocol: Anticancer activity against human HCT116 cells assessed cell growth at 10 uM after 48 hrs by sulforhodamine B assay relative to control
# Assay type: functional
Entry flag: class 1 if Activity reaches 30%; class 0 if it does not.

These solved cases illustrate the format of a correct answer.
CCCCCCCCCCCC[n+]1ccn(C)c1.F[B-](F)(F)F :: class 0
CCCCCCCC[n+]1ccn(C)c1.F[P-](F)(F)(F)(F)F :: class 1
CCCCCCCCOS(=O)(=O)[O-].CCCCCCCC[n+]1ccn(C)c1 :: class 1
CCCCCCCCCCCCCCCCCC[n+]1ccn(C)c1.[Cl-] :: class 0
COCC[n+]1ccn(C)c1.O=S(=O)([N-]S(=O)(=O)C(F)(F)F)C(F)(F)F :: class 1

Could you please find out whether `CCCCCCCCCCCCCCCCCC[n+]1ccn(C)c1.F[P-](F)(F)(F)(F)F` has Activity that meets 30% or exceeds it?
class 0

Now try `CCCCCCCCCCCCCCCCCC[n+]1ccn(C)c1.O=S(=O)([N-]S(=O)(=O)C(F)(F)F)C(F)(F)F` .
class 0

Continue with `CCCCCC[n+]1ccn(C)c1.FC(F)(F)C(F)(F)[P-](F)(F)(F)(C(F)(F)C(F)(F)F)C(F)(F)C(F)(F)F`
class 1

* * *

# Test system: SNB-19
# Protocol: Anticancer activity against human SNB19 cells assessed cell growth at 10 uM after 48 hrs by sulforhodamine B assay relative to control
# Type: functional
Recorded metric: Activity
Please give the number followed by its unit.

CCCCCCCC[n+]1ccn(C)c1.[Cl-] :: 91.91%
CCCCCCCCCCCCCCCCCC[n+]1ccn(C)c1.F[P-](F)(F)(F)(F)F :: -67.18%
CCCCCCCCOS(=O)(=O)[O-].CCCCCCCC[n+]1ccn(C)c1 :: 82.22%

Kindly review the next compound as well.
What is its Activity for SNB-19? Entry: `CCCCCC[n+]1ccn(C)c1.O=S(=O)([N-]S(=O)(=O)C(F)(F)F)C(F)(F)F`
95.37%
